Data origin: patent US9675591B2

Study system: Nav1.3 (Homo sapiens (Human))
Sequence (Q9NY46 whole entry): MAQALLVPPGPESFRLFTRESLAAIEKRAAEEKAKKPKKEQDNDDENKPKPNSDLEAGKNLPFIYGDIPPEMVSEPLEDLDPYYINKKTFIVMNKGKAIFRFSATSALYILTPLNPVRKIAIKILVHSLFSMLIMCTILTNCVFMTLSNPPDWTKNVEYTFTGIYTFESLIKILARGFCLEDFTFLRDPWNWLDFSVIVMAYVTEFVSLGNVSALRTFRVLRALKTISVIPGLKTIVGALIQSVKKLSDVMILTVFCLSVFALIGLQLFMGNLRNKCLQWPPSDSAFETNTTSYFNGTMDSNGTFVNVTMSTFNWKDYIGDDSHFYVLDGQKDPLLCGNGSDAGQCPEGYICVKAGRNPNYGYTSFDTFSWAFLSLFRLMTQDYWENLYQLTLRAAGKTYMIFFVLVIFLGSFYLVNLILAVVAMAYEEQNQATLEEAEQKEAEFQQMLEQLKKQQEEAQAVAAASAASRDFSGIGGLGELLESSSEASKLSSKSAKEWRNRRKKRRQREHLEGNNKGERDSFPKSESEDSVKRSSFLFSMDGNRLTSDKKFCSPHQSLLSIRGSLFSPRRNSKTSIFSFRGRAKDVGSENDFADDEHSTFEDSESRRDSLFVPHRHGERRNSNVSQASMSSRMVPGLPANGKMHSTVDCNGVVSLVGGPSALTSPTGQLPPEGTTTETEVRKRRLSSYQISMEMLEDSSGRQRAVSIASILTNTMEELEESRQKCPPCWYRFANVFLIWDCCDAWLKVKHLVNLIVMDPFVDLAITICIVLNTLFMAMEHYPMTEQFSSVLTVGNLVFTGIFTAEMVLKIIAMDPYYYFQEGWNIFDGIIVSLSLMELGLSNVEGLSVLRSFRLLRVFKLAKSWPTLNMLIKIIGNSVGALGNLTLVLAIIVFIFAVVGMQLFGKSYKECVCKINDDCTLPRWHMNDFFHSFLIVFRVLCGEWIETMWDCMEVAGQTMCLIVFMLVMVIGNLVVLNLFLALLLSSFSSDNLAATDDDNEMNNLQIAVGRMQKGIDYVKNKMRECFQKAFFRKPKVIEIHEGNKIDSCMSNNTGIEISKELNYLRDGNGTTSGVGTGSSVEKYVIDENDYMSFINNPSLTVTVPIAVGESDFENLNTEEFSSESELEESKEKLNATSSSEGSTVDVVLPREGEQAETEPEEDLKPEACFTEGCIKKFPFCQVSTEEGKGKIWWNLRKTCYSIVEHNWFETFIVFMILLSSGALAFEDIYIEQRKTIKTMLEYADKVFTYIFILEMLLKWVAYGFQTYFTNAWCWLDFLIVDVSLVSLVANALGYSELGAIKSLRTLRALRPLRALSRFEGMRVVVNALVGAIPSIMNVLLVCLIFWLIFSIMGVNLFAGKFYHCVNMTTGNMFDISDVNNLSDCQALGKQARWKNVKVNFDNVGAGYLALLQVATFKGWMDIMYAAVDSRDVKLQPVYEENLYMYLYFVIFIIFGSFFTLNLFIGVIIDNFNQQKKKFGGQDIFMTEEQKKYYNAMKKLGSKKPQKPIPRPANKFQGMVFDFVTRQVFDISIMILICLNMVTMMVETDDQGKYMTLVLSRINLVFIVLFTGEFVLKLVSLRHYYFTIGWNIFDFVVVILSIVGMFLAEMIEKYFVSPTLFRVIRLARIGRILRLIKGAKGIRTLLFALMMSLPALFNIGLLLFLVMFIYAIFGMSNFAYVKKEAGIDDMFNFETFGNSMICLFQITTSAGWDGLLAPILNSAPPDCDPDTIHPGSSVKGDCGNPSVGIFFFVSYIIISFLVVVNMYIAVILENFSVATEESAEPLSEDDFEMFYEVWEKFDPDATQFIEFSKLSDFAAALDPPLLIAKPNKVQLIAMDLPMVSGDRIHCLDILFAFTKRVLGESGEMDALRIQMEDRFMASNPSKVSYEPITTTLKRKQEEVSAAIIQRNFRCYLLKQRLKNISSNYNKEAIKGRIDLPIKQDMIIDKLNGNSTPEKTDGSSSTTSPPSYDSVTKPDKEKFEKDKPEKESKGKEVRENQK
Assay explanation: Voltage-clamp, Nav1.3
Settings: read-out: EC50 or IC50, Nav1.3
Experimental endpoint: IC50 (nM)
Quick reminder: number only, in nM, skip the unit.

Entry Nc1nc2ccc(SC(F)(F)F)cc2s1 has what IC50?
2200

###

Assay explanation: Motor toxicity, horizontal screen test in mice
Assay type: in vivo
Settings: CF-1, mouse, in vivo, ip, i.p. as solution, 10 min time point, read-out: TD50, neurological impairment (horizontal screen)
Experimental endpoint: TD50 at 10 min (mg/kg)
Quick reminder: number only, in mg/kg, skip the unit.

Entry Nc1nc2ccc(SC(F)(F)F)cc2s1 has what TD50 at 10 min?
16.1

###

Study system: UniProtKB Q14721
Sequence (Q14721 whole entry): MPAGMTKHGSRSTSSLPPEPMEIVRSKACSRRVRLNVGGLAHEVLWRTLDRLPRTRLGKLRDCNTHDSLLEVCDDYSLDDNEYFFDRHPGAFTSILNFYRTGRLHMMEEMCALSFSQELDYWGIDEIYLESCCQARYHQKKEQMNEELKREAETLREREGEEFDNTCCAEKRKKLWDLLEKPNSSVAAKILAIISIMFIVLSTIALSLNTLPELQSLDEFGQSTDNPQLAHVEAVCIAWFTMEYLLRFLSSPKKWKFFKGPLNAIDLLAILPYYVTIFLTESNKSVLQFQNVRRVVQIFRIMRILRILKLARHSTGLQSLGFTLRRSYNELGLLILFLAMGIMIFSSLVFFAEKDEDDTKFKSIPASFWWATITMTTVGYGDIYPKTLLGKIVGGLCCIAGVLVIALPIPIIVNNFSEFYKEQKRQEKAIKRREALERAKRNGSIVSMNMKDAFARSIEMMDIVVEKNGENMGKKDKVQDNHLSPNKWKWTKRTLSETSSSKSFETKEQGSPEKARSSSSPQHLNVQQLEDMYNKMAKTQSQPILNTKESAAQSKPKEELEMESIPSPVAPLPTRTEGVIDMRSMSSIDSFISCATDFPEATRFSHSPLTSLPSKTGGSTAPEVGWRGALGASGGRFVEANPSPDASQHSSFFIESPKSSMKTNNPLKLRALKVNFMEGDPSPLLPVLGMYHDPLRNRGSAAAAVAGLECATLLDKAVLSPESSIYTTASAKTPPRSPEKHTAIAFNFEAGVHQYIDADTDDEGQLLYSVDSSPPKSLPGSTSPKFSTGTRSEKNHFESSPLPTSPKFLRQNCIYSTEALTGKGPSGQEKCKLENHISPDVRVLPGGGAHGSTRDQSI
Assay explanation: Voltage-clamp, Kv2.1 in HEK-293 cells
Settings: read-out: EC50 or IC50, Kv2.1
Experimental endpoint: pIC50
Please treat pIC50 as minus the base-10 logarithm of the molar concentration.

Recorded pIC50 for Nc1nc2ccc(SC(F)(F)F)cc2s1 with UniProtKB Q14721, please?
4.65

###

Study system: KCa2.1 (Homo sapiens (Human), UniProt Q92952)
Assay explanation: Whole-cell patch-clamp, KCa2.1
Settings: 250 nM free intracellular Ca2+; read-out: EC50 or IC50, KCa2.1
Experimental endpoint: EC50

Entry Nc1nc2ccc(SC(F)(F)F)cc2s1 has what EC50?
> 100 µM

###

Assay explanation: Acute toxicity, rotorod test in mice
Assay type: in vivo
Settings: albino CF No. 1 (Carworth Farms), mouse, in vivo, ip; mice, i.p., suspension; read-out: TD50, ability of mice to stay on the rotorod
Protocol: Abnormal neurological status in mice following SKA-19 administration was evaluated with the rotorod test. When a normal mouse is placed on a rod 1 inch in diameter that rotates at a speed of 6 rpm, the mouse can maintain equilibrium for a long time. Inability of the mouse to stay on the rotating rod in three trials for 1 min is taken as an indication of motor impairment. […] Animals that fell from the grid within 10 s were scored as impaired.
Experimental endpoint: TD50 at 2 h (mg/kg)
Quick reminder: number only, in mg/kg, skip the unit.

Entry Nc1nc2ccc(SC(F)(F)F)cc2s1 has what TD50 at 2 h?
29.8

###

Study system: Nav1.5 (Homo sapiens (Human), UniProt Q14524)
Assay explanation: Voltage-clamp, Nav1.5 in HEK-293 cells
Settings: read-out: EC50 or IC50, Nav1.5
Experimental endpoint: IC50 (µM)
Quick reminder: number only, in µM, skip the unit.

Entry Nc1nc2ccc(SC(F)(F)F)cc2s1 has what IC50?
5.8

###

Assay explanation: Acute toxicity, neurological status of rats (positional sense, muscle tone, gait and stance)
Assay type: in vivo
Settings: Sprague-Dawley, rat, in vivo, ip; rats
Experimental endpoint: TD50 at 1 h
Your answer should be a number followed by the unit of measure.

Entry Nc1nc2ccc(SC(F)(F)F)cc2s1 has what TD50 at 1 h?
14.3 mg/kg

###

Study system: Nav1.4 (Homo sapiens (Human), UniProt P35499)
Assay explanation: Voltage-clamp, Nav1.4 in HEK-293 cells
Settings: read-out: EC50 or IC50, Nav1.4
Experimental endpoint: IC50 (µM)
Quick reminder: number only, in µM, skip the unit.

Entry Nc1nc2ccc(SC(F)(F)F)cc2s1 [SKA-19] has what IC50?
4.5

###

Study system: Nav1.2 (Mus musculus (Mouse))
Sequence (B1AWN6 whole entry): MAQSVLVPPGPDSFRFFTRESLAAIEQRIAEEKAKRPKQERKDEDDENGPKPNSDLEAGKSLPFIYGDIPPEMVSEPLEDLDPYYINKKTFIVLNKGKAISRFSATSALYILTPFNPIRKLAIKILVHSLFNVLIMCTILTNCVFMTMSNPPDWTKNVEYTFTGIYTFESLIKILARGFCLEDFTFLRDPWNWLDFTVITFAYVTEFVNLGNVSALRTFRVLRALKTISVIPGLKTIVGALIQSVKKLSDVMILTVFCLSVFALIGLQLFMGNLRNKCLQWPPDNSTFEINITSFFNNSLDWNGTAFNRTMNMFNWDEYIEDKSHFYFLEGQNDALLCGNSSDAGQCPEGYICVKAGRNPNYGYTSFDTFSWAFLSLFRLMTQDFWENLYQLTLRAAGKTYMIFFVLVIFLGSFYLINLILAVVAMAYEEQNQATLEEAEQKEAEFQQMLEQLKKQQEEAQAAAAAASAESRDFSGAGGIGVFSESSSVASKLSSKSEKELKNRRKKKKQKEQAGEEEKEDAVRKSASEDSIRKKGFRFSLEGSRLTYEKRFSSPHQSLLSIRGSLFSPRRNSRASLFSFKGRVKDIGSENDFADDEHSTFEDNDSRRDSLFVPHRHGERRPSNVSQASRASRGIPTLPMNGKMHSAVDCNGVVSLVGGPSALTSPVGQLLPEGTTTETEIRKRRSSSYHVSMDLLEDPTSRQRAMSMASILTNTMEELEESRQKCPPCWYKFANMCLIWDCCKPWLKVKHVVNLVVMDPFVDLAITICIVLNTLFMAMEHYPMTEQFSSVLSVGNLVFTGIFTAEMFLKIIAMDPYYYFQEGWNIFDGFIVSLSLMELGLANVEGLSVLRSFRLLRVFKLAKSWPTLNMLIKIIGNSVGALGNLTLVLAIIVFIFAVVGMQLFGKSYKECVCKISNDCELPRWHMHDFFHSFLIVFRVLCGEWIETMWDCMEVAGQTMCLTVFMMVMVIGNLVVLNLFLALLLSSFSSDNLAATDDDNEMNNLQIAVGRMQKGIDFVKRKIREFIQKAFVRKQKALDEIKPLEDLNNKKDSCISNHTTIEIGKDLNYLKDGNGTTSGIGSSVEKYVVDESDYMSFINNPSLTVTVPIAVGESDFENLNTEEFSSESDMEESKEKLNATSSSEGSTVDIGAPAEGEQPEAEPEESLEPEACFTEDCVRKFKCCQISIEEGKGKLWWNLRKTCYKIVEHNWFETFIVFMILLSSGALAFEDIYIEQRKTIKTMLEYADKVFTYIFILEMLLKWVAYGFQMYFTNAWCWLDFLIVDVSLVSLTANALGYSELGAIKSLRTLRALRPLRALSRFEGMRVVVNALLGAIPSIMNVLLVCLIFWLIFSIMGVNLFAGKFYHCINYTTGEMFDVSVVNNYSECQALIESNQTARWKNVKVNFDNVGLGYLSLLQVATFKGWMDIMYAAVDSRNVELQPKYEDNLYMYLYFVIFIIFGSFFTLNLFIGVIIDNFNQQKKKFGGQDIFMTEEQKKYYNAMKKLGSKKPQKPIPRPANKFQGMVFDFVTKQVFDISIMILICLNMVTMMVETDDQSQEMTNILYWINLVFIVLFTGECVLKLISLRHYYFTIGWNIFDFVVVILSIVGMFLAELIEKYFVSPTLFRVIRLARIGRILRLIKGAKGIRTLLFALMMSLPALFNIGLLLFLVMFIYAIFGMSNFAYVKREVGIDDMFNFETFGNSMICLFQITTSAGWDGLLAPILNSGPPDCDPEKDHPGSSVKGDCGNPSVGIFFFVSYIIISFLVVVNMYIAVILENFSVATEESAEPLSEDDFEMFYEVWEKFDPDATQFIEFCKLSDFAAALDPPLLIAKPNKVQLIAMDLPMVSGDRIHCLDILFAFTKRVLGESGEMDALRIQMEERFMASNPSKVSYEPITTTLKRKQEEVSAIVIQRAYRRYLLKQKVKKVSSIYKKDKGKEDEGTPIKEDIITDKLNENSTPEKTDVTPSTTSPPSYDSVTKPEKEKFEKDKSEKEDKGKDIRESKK
Assay explanation: Voltage-clamp, Nav1.2 currents in N1E-115 neuroblastoma cells
Type: cell-based
Settings: -70 mV holding potential; read-out: IC50, Nav1.2
Experimental endpoint: pIC50
Please treat pIC50 as minus the base-10 logarithm of the molar concentration.

Entry Nc1nc2ccc(SC(F)(F)F)cc2s1 has what pIC50?
6.07

###

Assay explanation: Acute toxicity, neurological status of rats (positional sense, muscle tone, gait and stance)
Format: in vivo
Settings: Sprague-Dawley, rat, in vivo, ip; rats
Experimental endpoint: TD50 (mg/kg)
Quick reminder: number only, in mg/kg, skip the unit.

Entry Nc1nc2ccc(SC(F)(F)F)cc2s1 [SKA-19] has what TD50?
14.3

###

Study system: KCa2.3 (SK3) (Homo sapiens (Human))
Assay explanation: Whole-cell patch-clamp, KCa2.3
Settings: 250 nM free intracellular Ca2+; read-out: EC50 or IC50, KCa2.3
Experimental endpoint: EC50 (µM)
Quick reminder: number only, in µM, skip the unit.

Entry Nc1nc2ccc(SC(F)(F)F)cc2s1 has what EC50?
15

###

Assay explanation: Pharmacokinetics in Sprague-Dawley rats
Type: in vivo
Settings: male, Sprague-Dawley, rat, plasma, intraperitoneal; 10 mg/kg i.p., 2 h; read-out: plasma concentration
Experimental endpoint: concentration at 2 h (µM)
Quick reminder: number only, in µM, skip the unit.

Entry Nc1nc2ccc(SC(F)(F)F)cc2s1 [SKA-19] has what concentration at 2 h?
4.6

###

Assay explanation: Acute toxicity, rotorod test in mice
Format: in vivo
Settings: CF No. 1 (Carworth Farms), mouse, in vivo, ip; mice, i.p., suspension; read-out: TD50, ability of mice to stay on the rotorod
Experimental endpoint: TD50 (mg/kg)
Quick reminder: number only, in mg/kg, skip the unit.

Entry Nc1nc2ccc(SC(F)(F)F)cc2s1 [SKA-19] has what TD50?
29.8

###

Assay explanation: Acute toxicity, neurological status of rats (positional sense, muscle tone, gait and stance)
Type: in vivo
Settings: Sprague-Dawley, rat, in vivo; rats, oral
Experimental endpoint: TD50 at 4 h
Your answer should be a number followed by the unit of measure.

Entry Nc1nc2ccc(SC(F)(F)F)cc2s1 has what TD50 at 4 h?
77.4 mg/kg

###

Assay explanation: Plasma protein binding by ultrafiltration
Format: in vitro ADME
Settings: rat plasma
Experimental: For intravenous application, SKA-19 was dissolved at 5 mg/mL in a mixture of 10% CremophorEL (Sigma-Aldrich, St. Louis, Mo., USA) and 90% phosphate-buffered saline and then injected at 10 mg/kg into the tail vein of Sprague-Dawley rats. At various time points after the injection, ˜100 to 200 μL of blood was collected from a tail nick into EDTA blood sample collection tubes. […] The centrifugate (=free SKA-19) was directly analyzed for SKA-19 by UPLC-MS. […]
Experimental endpoint: fraction unbound

Entry Nc1nc2ccc(SC(F)(F)F)cc2s1 has what fraction unbound?
0.11 to 0.18

###

Study system: UniProt:B1AWN6
Assay explanation: Voltage-clamp, Nav1.2 currents in N1E-115 neuroblastoma cells
Assay type: cell-based
Settings: pulse frequency 20 Hz; read-out: IC50, Nav1.2
Experimental endpoint: pIC50
Please treat pIC50 as minus the base-10 logarithm of the molar concentration.

Entry Nc1nc2ccc(SC(F)(F)F)cc2s1 has what pIC50?
6.28

###

Assay explanation: Motor toxicity, horizontal screen test in mice
Format: in vivo
Settings: mouse, in vivo, ip, i.p. as solution, 10 min time point, read-out: TD50, neurological impairment (horizontal screen)
Experimental endpoint: TD50 at 10 min (mg/kg)
Quick reminder: number only, in mg/kg, skip the unit.

Entry Nc1nc2ccc(SC(F)(F)F)cc2s1 has what TD50 at 10 min?
16.1
